Tested on: MS2 coat protein
protocol_notes: apparent KD of MS2 coat protein; higher = weaker reporter binding
experimental_setup: Eterna round: R107; input ligand: arginine 13.2 mM
Threshold rule: apparent KD of MS2 coat protein greater than or equal to 20 nM is Condition met; below that, Condition not met.

sequence_string: UACAUGAGGAUCACCCAUGUGUAGAGGGAUACCAGUGACAGUAAGCGCCCUUGGCAGCCCGUGAACAAUGGGUGAGCAAAAUAGU [#17 Exclusion-TheophyllineA]
cat: Condition met
//
sequence_string: AACAUGAGGAUCACCCAUGUCCUCAUGAUUCGAGGACCGGUACGGCCGCCACUCGGUCCUCGCGAGGAGGAGUCAAAGACUCCAA [Omei Trp A SS A v2]
cat: Condition met
//
sequence_string: UACAUGAGGAUCACCCAUGUAUGUAUCGAAGGAGCGCGUGUAAACGCAGGUAGGUCGCGAACAUGAGGAUCACACAUGAGGAUCA [Same State Arginine A]
cat: Condition met
//
sequence_string: UUAGAUAUGACAGAUACCAGCGUGUUGUAGAACAUGAGGAUCACCCAUGUAGUGAUCGUGCGCCCUUGGCAGCUGGUAUGUUUGG [7.W]
cat: Condition met
//
sequence_string: GCUAGUGGCAGAAGGAGCGGCAUACUUGCAAGUGACAUGAGGAUCACCCAUGUAAGGGAAUGCCAGGUAGGUCGCUGCCACUAGC [EAB NP+V+V2 #1 +-Same Structure]
cat: Condition met
//
sequence_string: AAGUCAGGAGGCGAUACCAGUUACGACAUGGCCAGUUACAUGAGGAUCACCCAUGUGCGGAACCCUUGGCAGCGCUUACAUCGCU [theeternabot_exclusion_MS2_Theo_B_1]
cat: Condition met
//
sequence_string: UGUACUAUGUGAAGGAGCGAGAAGGAGCGAACAUGAGGAUCACCCAUGUACAGGUAGGUCGCUCAGGUAGGUCGCACAUAGUACU [ArgBS - Double aptamer]
cat: Condition not met
//
sequence_string: UCGCUCGCCGGAAGGCGAGCGAGUUGCGAUACCAGCCCGGAAACGGGCCCUUGGCAGCGCACAUGAGGAUCACCCAUGUCAUGUU [#1 Exclusion - Theophylline A Attempt #6 (HarryS)]
cat: Condition met
//
sequence_string: GUUAGAUCAAAAGAUUUAACAGUGGGUGAACGAGGACCGGUACGGCCGCCACUCGGACAUGAGGAUCACCCAUGUCCAUGUGAAA [AstrosExyTryA#16]
cat: Condition not met
//
sequence_string: CUCGGGUUAUCAGAUACCAGACUAAAAUUUACAUGAGGAUCACCCAUGUAAUGGGUGAUAGUCCCUUGGCAGCUGUUAUGUUUAA [JR_ExcTheophyB_Sub001]
cat: Condition met
//
sequence_string: UUAUAUUCUCAAUCGCCAUGUGCUUUAGAUACCAGUCUGAUAAAUGACCCUUGGCAGCUAGAGACAUGAGGAUCACCCAUGUCUU [theeternabot_exclusion_MS2_Theo_A_8]
cat: Condition not met

---

Catalogue of sequences with associated apparent KD of MS2 coat protein
Test system: MS2 coat protein
protocol_notes: apparent KD of MS2 coat protein; designed switch direction (-1 OFF switch, 1 ON switch): 1; higher = weaker reporter binding
experimental_setup: input ligand: FMN 200 uM
readout_name: apparent KD of MS2 coat protein (nM)

sequence_string: GGACGUCGAUCUCCUACUUAAACAUGAGGAUCACCCAUGUCACAGGAUAUGAGUCCGAUUAGGACUCAGAAGGGUGCGACGUCC [Fiskers NG3ss - 51] (Eterna round: R96, puzzle: Same State NG 3)
readout_name: apparent KD of MS2 coat protein
assay_value: 14

sequence_string: GUGGUGAAUUAAGGAUAUCGAGUCUAGAUGUUAAACAUGAGGAUCACCCAUGUGGGUUGCGGUGUCGAGAAGGUGAUUUACGGG [salish99_SSNG2_r04_509] (Eterna round: R96, puzzle: Same State NG 2)
readout_name: apparent KD of MS2 coat protein
assay_value: 82.2

sequence_string: AUGAAGAAUUAAGGAUAUUGAUUACAUAUGUUUAACAUGAGGAUCACCCAUGUGGGUUGCGGUAUCGAGAAGGUAAAUUAAUAG [Mat - same State NG 2 - JL mod - D84] (Eterna round: R96, puzzle: Same State NG 2)
readout_name: apparent KD of MS2 coat protein
assay_value: 187

sequence_string: UUAACAUGAGGAUCACCCAUGUAUGCGUUGCUUGCAUUUUGACAGGAUAUUGUUUAUCCAUAUAGCAAGAAGGGUCGUUAGUCU [JR_SSNG3_Sub010] (Eterna round: R96, puzzle: Same State NG 3)
readout_name: apparent KD of MS2 coat protein
assay_value: 80.9

---

Test system: K4 kissing-loop RNA reporter;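 further: bound reporter read as fluorescence of individual clusters on recovered sequencing chips by microscopy, with normalized cluster intensities fitted with a binding model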
protocol_notes: apparent KD of K4 kissing-loop reporter; higher = weaker reporter binding
experimental_setup: Eterna round: R107; input ligand: theophylline 20 uM
Classification field: enter MET for apparent KD of K4 kissing-loop reporter values not below 0.2 µM, NOT MET for values below it.

sequence_string: UGAUAGGACAGAAGGAGCGGAGCUGGUCAAAGACCAGCAAUAACGUUGAAAGGAGUGAUGUUCCAGGUAGGUCGCUGUCCUAUCU [ArgBX 26 #SwitchBubble #StaticStem]
cat: NOT MET

sequence_string: GAUUCAGUGAUGUUGGAAGGCGAGCGGGAUACCAGCGGAGACUCACGCCCUUGGCAGCCCACAUAUCCCAGGUAGAUAAUAGAUC [Same State - Theophylline A (Freestyle 7)]
cat: NOT MET

sequence_string: AGGCACGAGCAAGGAUAUCGAGUGGAGUGAUGUUCUGCCGACCCAGGACCGCAAGGUCCUGGGUCGCGAGAAGGUGCUCGUGCCU [#2 Same State - FMN A Attempt #5 (HarryS)]
cat: MET

sequence_string: CUAUAAGUGCCGAGUGAUGUUCGGCCAAUACGAGGACCGGUACGGCCGCCACUCGGUCAGUCGGUGCCCACCGGGCAUGGCUGAC [Ortima]
cat: MET

sequence_string: UGGAUAUAGUGAUGUUAUAUAGAGAUGGAUACCAGCUAAGAGAAUGGCCCUUGGCAGCCGAAAGAAGUAUCAUUAGAGAAGAAUG [ExTheophyl.Ag]
cat: MET

sequence_string: GAAGGUCAAAGACCUUCGUGCACAUCUGAUACCAGUCGCGAAAGCGACCCUUGGCAGCAGGGCAGUGAUGUUGCCAGUGCACAAA [Omei KL Theo A SS A v4]
cat: NOT MET

---

Test system: MS2 coat protein
protocol_notes: apparent KD of MS2 coat protein; higher = weaker reporter binding
experimental_setup: Eterna round: R107; input ligand: none

sequence_string: CAAUAGAUAGCGGCCGCCACUUACUCAUGAGGUAACAACAUGAGGAUCACCCAUGUUUGAGGAUCAAGGACCGGGCUAUUUAUUG [AstrosSSTryB#7]
apparent KD of MS2 coat protein, nM: 27.5
//
sequence_string: CGAUAUAAGACGGCCGCCACUAUUAAGUAUCAAAAUAAACAUGAGGAUCACCCAUGUACAUGGGAUAGGACCGGGUCCAAUAACG [A2]
apparent KD of MS2 coat protein, nM: 128
//
sequence_string: GGGAAAUGAAUAGAAUGAGAUGACACAGAAGGAGCGCGGAUUAACGCAGGUAGGUCGCUGACAACAUGAGGAUCACCCAUGUUUC [#10 Same State - Arginine A]
apparent KD of MS2 coat protein, nM: 14.2
//
sequence_string: UGACAUUGCUCAGAUACCAGACAUGAGCAUCAGCCAUGUACCAAGAGUACAUAUUAAAAUGUCCCUUGGCAGCUGAGCAAUGUCU [Mod of Eli's TheoBX5 #AlternateMS2 v1]
apparent KD of MS2 coat protein, nM: 11
//
sequence_string: ACGUAAUGCAGAAGGAGCGUCUAUGUGUUACAUGAGGAUCACCCAUGUGUUAUGUUAUGUGGACAGGUAGGUCGCUGAAGUACGA [JR_SSArginiB_Sub005]
apparent KD of MS2 coat protein, nM: 127
//
sequence_string: UCAGGAAGAGCGGCCGCCACUGUUUGGCAUGCGGAUGAAGGAACAUGAGGAUCACCCAUGUAGAUUAGGACCGGGCUUGCGGAGA [szeemullin]
apparent KD of MS2 coat protein, nM: 13.7
//
sequence_string: GACAUUAACUGAAGGAGCGAGGUAGAACGGGAUGAGCAUACAUGAGGAUCACCCAUGUGGCCUCAGGUAGGUCGCAGAUGAGAUU [Exclusion Arginine B GF25]
apparent KD of MS2 coat protein, nM: 175
//
sequence_string: UACAUGAGGAUCACCCAUGUGUAGAGGGAUACCAGUGACAGUAAGCGCCCUUGGCAGCCCGUGAACAAUGGGUGAGCAAAAUAGU [#17 Exclusion-TheophyllineA]
apparent KD of MS2 coat protein, nM: 19.4
//
sequence_string: UCUUGAGUUUCGGAUACCAGUGAUGUCGAUACAUGAGGAUCACCCAUGUUAGAGGAUGUACACCCUUGGCAGCCGGGUGUGGCGG [wswmullin]
apparent KD of MS2 coat protein, nM: 36
//
sequence_string: GUCCACAGCCGAAGGAGCGCUAGAAGAUGACAUGAGGAUCACCCAUGUGUGUGAUGUGGCUAGCAGGUAGGUCGCGGAGUGGAUU [Exclusion - Arginine B (Freestyle 14)]
apparent KD of MS2 coat protein, nM: 21.7
//
sequence_string: UAUCCACAUGAGGAUCACCCAUGUAAGGAAGGAGCGGUGAAUGCACCAGGUAGGUCGCCUUGCUGAGGACUGUCGGUGGAUUCGU [Exclusion - Arginine A (Freestyle 22)]
apparent KD of MS2 coat protein, nM: 32.8
//
sequence_string: UGGUACAUGGCGGCCGCCACUUCACGUAAAAUAAAAACGUGAGGAUCACCCACGUAAUAAGUUGGGAGGACCGGGUCAUGUACCU
apparent KD of MS2 coat protein, nM: 321
//
sequence_string: AGCCCGGGAGCGGCCGCCACUGGAGGCUUAGCGCGACAUGAGGAUCACCCAUGUGUGCCCGGCGUUAGGACCGGGCUCGCGUGGU [#1 Same State - Tryptophan B Attempt #22 (HarryS)]
apparent KD of MS2 coat protein, nM: 31.2
//
sequence_string: AUACAUGAGGAUCACCCAUGUUACACUGAAGGAGCGACAUGUUUGUCAGGUAGGUCGCAGUGAAGUUUAAUAAUUCUUUGAUCUU [#06 Same State - Arginine A]
apparent KD of MS2 coat protein, nM: 24
//
sequence_string: GUUGGUUUGGGAAGGAGCGGGUAUGUUGUCUACUUGAUCCUAACAUGAGGAUCACCCAUGUCCCAGGUAGGUCGCCCAGGCUUUG [12.aD]
apparent KD of MS2 coat protein, nM: 139
//
sequence_string: UACAUGAGGAUCACCCAUGUCUGAACUGAAGGAGCGCUAAACAAGGCAGGUAGGUCGCGGAAUUUUGUGUGCAUAUGCAUAUGGG [9.K]
apparent KD of MS2 coat protein, nM: 30.6
//
sequence_string: AACAUGAGGAUCACCCAUGUCUGAACUGAAGGAGCGCUAAAUAAGGCAGGUAGGUCGCGGAAUUUUGUGUACAUAUGUAUAUGGG [9.H]
apparent KD of MS2 coat protein, nM: 25.9
//
sequence_string: UGGCAAGAGGGAAGGAGCGUCAGCUGAGUCACAUGAGGAUCACCCAUGUAGCACAUGGUGUGACAGGUAGGUCGCCCUCUGCCGU [SS-ArgB11]
apparent KD of MS2 coat protein, nM: 21.5
//
sequence_string: GGUUGGUGUAGAGAUAUAUUGAUUACUGAAGGAGCGGGAAAUAACCCAGGUAGGUCGCAGAGAUCCACAUGAGGAUCACCCAUGU [!0.K]
apparent KD of MS2 coat protein, nM: 39.7
